FYI, the data here is from the supplement of paper PMC9732359.

assay notes: protein stability index of a GFP-peptide fusion (yeast GPS) (PSI 1-4); higher = more stable; sorted into four equal gates, so the index is relative within each strain
condition label: ubr1∆
value type: protein stability index
When you answer, write just the number.

[ask] Looking for the measured protein stability index of RPSITEAMMLKEEGLQQ [MED1] , can you help?
[reply] 2.94

[ask] Ok, now QNIKAPSVKRQKMAELE [PRP8]
[reply] 3.29

[ask] // next record YHQLLSDIESLEALMDI [SRB8]
[reply] 2.25

[ask] Now try TRSAKKMVIAELLPHYP [YJR042W/NUP85] .
[reply] 3

====

assay notes: protein stability index of a GFP-peptide fusion (yeast GPS) (PSI 1-4); higher = more stable; sorted into four equal gates, so the index is relative within each strain
condition label: doa10∆
value type: protein stability index
# output: bare number, no unit

[ask] If you can, please state the reported protein stability index value of ELLPHYPFVTNDDIEWM [YJR042W/NUP85] .
[reply] 2.54

[ask] For PRQTKKAKAQAQAQAQA [PGD1] then?
[reply] 3.2

[ask] Same for NNLEPRQTTSNTGLLNK [RPN11]
[reply] 3.2
